The following molecules have recorded pIC50 on HDAC1 (Homo sapiens, UniProt Q13547).
Sequence (Q13547 whole entry): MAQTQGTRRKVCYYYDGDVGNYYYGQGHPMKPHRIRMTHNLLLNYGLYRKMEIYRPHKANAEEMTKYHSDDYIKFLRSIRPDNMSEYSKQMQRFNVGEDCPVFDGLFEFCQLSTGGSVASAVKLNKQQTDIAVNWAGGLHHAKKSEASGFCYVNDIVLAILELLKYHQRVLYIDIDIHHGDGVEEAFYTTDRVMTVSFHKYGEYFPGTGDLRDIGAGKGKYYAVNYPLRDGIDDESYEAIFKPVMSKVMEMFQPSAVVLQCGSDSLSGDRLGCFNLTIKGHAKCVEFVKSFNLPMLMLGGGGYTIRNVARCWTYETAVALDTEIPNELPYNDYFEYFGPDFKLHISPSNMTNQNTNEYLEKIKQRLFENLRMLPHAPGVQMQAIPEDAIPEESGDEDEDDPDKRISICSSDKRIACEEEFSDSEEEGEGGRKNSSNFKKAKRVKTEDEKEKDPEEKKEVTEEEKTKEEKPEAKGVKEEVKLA
pIC50: −log10 of the molar value.
MEASUREMENT KIND: pIC50

The following molecules have reported results that may help.
COc1cccc(CN2CCC(c3cnc4c(ccn4Cc4ccc(C(=O)NO)cc4)c3)CC2)c1 :: 5.75
CC(C)CN1CCN(c2cnc3c(ccn3Cc3ccc(C(=O)NO)cc3)c2)CC1 :: 5.45

I. CCN1CCN(c2ccnc3c2ccn3Cc2ccc(C(=O)NO)cc2)CC1
II. CC(C)(F)CN1CC=C(c2cnc3c(ccn3Cc3ccc(C(=O)NO)cc3)c2)CC1
Query string: For I and II , which recorded pIC50 is lower? Pick one and reply with its label.
Result string: II
(II: 5.37, I: 6.42)

1. O=C(NO)c1ccc(Cn2ccc3c(-c4cncnc4)ccnc32)cc1
2. Nc1cccc(-c2ccnc3c2ccn3Cc2ccc(C(=O)NO)cc2)c1
Query string: Given the listed records, identify the one among 1 and 2 with higher pIC50. Record your answer as the label of the chosen record.
Result string: 2
(2: 6.57, 1: 6.05)
